system: A549 cells with Kras G12S mutation; assay: Cell proliferation inhibition experiment, 3D spheroid, CellTiter-Glo (Test Example 1); format: cell-based, human; details: 5 days
pIC50: −log10 of the molar value.
metricName: pIC50

* C=CC(=O)N1CCN2c3c(c(=O)n(-c4c(C)ccnc4C(C)C)c4nc(-c5c(O)cccc5F)c(Cl)cc34)NC(=O)[C@H]2C1 (single isomer, unassigned) [Compound Z24-2] | 4.95
* C=CC(=O)N1C[C@@H]2C(=O)N(C)c3c(c4cc(F)c(-c5c(O)cccc5F)nc4n(-c4c(C)ccnc4C(C)C)c3=O)N2C[C@H]1C (single isomer, unassigned) [Compound Z10-2] | 4.61
* C=CC(=O)N1CCN2c3c(c(=O)n(-c4c(C(C)C)ncnc4C(C)C)c4c(F)c(-c5c(O)cccc5F)c(Cl)cc34)NC(=O)[C@H]2C1 (single isomer, unassigned) [Compound Z37-2] | 5.48

====

Attribute: IC50
test system: MIA PaCa-2 cells with Kras G12C mutation; test: Cell proliferation inhibition experiment, 3D spheroid, CellTiter-Glo (Test Example 3); assay type: cell-based, human; details: Homo sapiens, MIA PaCa-2, 120 h, 5 days, read-out: MIA-PaCa2 IC50
metricName: IC50 (nM)

• C=CC(=O)N1CCN2c3c(c(=O)n(-c4c(C(C)C)ncnc4C(C)C)c4c(F)c(-c5c(O)cccc5F)c(Cl)cc34)NC(=O)[C@H]2C1 (single isomer, unassigned) = 2
• C=CC(=O)N1CCN2c3c(c(=O)n(-c4c(C(C)C)ccnc4C(C)C)c4c(F)c(-c5c(O)cccc5F)c(Cl)cc34)N(C)C(=O)[C@H]2C1 = 4
• C=CC(=O)N1C[C@@H]2C(=O)N(C)c3c(c4cc(F)c(-c5c(O)cccc5F)nc4n(-c4c(C)ccnc4C(C)C)c3=O)N2C[C@H]1C (single isomer, unassigned) = 8
• C=CC(=O)N1C[C@@H]2COc3c(c4cc(F)c(-c5c(O)cccc5F)nc4n(-c4c(C)ccnc4C(C)C)c3=O)N2C[C@H]1C = 18
• C=CC(=O)N1CCN2c3c(c(=O)n(-c4c(C)ccnc4C(C)C)c4nc(-c5c(O)cccc5F)c(F)cc34)NC(=O)CC2C1 (centres unmarked) = 128

====

system: MIA PaCa-2 cells with Kras G12C mutation; experiment: Cell proliferation inhibition experiment, 3D spheroid, CellTiter-Glo (Test Example 3); type: cell-based, human; conditions: Homo sapiens, MIA PaCa-2, 120 h, 5 days, read-out: MIA-PaCa2 IC50
pIC50: −log10 of the molar value.
metricName: pIC50

- C=CC(=O)N1C[C@@H]2C(=O)Nc3c(c4cc(F)c(-c5c(O)cccc5F)nc4n(-c4c(C)ccnc4C(C)C)c3=O)N2C[C@H]1C: 7.82
- C=CC(=O)N1C[C@@H]2C(=O)N(C)c3c(c4cc(Cl)c(-c5c(O)cccc5F)nc4n(-c4c(C)ccnc4C(C)C)c3=O)N2C[C@H]1C (single isomer, unassigned) [Compound Z27-2]: 9.00
- C=CC(=O)N1C[C@@H]2C(=O)N(C)c3c(c4cc(C5CC5)c(-c5c(O)cccc5F)nc4n(-c4c(C)ccnc4C(C)C)c3=O)N2C[C@H]1C: 7.23
- C=CC(=O)N1CCN2c3c(c(=O)n(-c4c(C)ccnc4C(C)C)c4nc(-c5c(O)cccc5F)c(F)cc34)N(C)C(=O)[C@H]2C1 (single isomer, unassigned) [Compound Z9-2]: 7.77
- C=CC(=O)N1CCN2c3c(c(=O)n(-c4c(C)ccnc4C(C)C)c4nc(-c5c(O)cccc5F)c(F)cc34)N(CC)C(=O)[C@H]2C1: 6.85
- C=CC(=O)N1CCN2c3c(c(=O)n(-c4c(C)ccnc4C(C)C)c4nc(-c5c(O)cccc5F)c(F)cc34)N(C)C(=O)[C@H]2C1 [Compound Z9]: 7.13

====

Attribute: IC50
target: KRas G12C (Homo sapiens (Human), UniProt P01116, G12C); assay: Nucleotide exchange assay (NEA)-HTRF, SOS1 catalyzed displacement of GDP by GTP (Test Example 4)
Sequence (P01116-2 other isoform, or with tags, fused parts or gaps G12C): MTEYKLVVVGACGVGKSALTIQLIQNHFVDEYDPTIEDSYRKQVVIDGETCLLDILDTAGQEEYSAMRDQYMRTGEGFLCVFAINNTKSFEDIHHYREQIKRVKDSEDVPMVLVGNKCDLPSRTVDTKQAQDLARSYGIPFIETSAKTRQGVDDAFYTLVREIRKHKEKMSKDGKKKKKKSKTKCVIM
metricName: IC50

• C=CC(=O)N1CCN2c3c(c(=O)n(-c4c(C)ccnc4C(C)C)c4nc(-c5c(O)cccc5F)c(F)cc34)N(C)C(=O)[C@H]2C1 (single isomer, unassigned) [Compound Z9-1] = 2570 nM
• C=CC(=O)N1CCN2c3c(c(=O)n(-c4c(C)ccnc4C(C)C)c4nc(-c5c(O)cccc5F)c(F)cc34)N(CC)C(=O)[C@H]2C1 [Compound Z30] = 656 nM
• C=CC(=O)N1CCN2c3c(c(=O)n(-c4c(C)ccnc4C(C)C)c4nc(-c5c(O)cccc5F)c(Cl)cc34)N(C)C(=O)[C@H]2C1 [Compound Z25] = 60 nM

====

assay: Pharmacokinetic evaluation on mice, intravenous administration (Test Example 6); format: in vivo; details: mouse, plasma; male CD-1 mice, IV 2 mg/kg; read-out: Cl (clearance rate) (converted)
Attribute: log10 of clearance
metricName: log10 of clearance (log10 of the value in mL/min/kg)

- C=CC(=O)N1CCN2c3c(c(=O)n(-c4c(C(C)C)ncnc4C(C)C)c4nc(-c5c(O)cccc5F)c(Cl)cc34)N(C)C(=O)[C@H]2C1: 1.41
- C=CC(=O)N1CCN2c3c(c(=O)n(-c4c(C)ccnc4C(C)C)c4nc(-c5c(O)cccc5F)c(Cl)cc34)N(C)C(=O)[C@H]2C1 (single isomer, unassigned): 0.92
- C=CC(=O)N1CCN2c3c(c(=O)n(-c4c(C)ccnc4C(C)C)c4nc(-c5c(O)cccc5F)c(F)cc34)N(C)C(=O)[C@H]2C1 (single isomer, unassigned): 0.37
- C=CC(=O)N1C[C@@H]2C(=O)N(C)c3c(c4cc(F)c(-c5c(O)cccc5F)nc4n(-c4c(C)ccnc4C(C)C)c3=O)N2C[C@H]1C (single isomer, unassigned): 1.13
- C=CC(=O)N1C[C@@H]2C(=O)N(C)c3c(c4cc(Cl)c(-c5c(O)cccc5F)nc4n(-c4c(C)ccnc4C(C)C)c3=O)N2C[C@H]1C (single isomer, unassigned): 0.99

====

test system: subcutaneous xenograft tumor model of MIA PaCa-2; experiment: In vivo pharmacodynamic experiment, tumor growth inhibition (Test Example 5); design: species or system BALB/c nude mice; conditions: 1 mg/kg, p.o., QD
metricName: Tumor Volume on Day 14 after Administration (mm^3)

• C=CC(=O)N1C[C@@H]2C(=O)N(C)c3c(c4cc(Cl)c(-c5c(O)cccc5F)nc4n(-c4c(C)ccnc4C(C)C)c3=O)N2C[C@H]1C (single isomer, unassigned) [Compound Z27-2] = 140.10
• C=CC(=O)N1CCN(c2nc(=O)n(-c3c(C)ccnc3C(C)C)c3nc(-c4c(O)cccc4F)c(F)cc23)[C@@H](C)C1 [AMG 510, reference compound] = 314.28
• C=CC(=O)N1CCN2c3c(c(=O)n(-c4c(C)ccnc4C(C)C)c4nc(-c5c(O)cccc5F)c(Cl)cc34)N(C)C(=O)[C@H]2C1 (single isomer, unassigned) [Compound Z25-2] = 180.14
• C=CC(=O)N1CCN2c3c(c(=O)n(-c4c(C(C)C)ncnc4C(C)C)c4nc(-c5c(O)cccc5F)c(Cl)cc34)N(C)C(=O)[C@H]2C1 [Compound Z48] = 459.33
• C=CC(=O)N1C[C@@H]2C(=O)N(C)c3c(c4cc(Cl)c(-c5c(O)cccc5F)nc4n(-c4c(C(C)C)ncnc4C(C)C)c3=O)N2C[C@H]1C [Compound Z23] = 194.65
• [2H]C([2H])([2H])N1C(=O)[C@H]2CN(C(=O)C=C)CCN2c2c1c(=O)n(-c1c(C)ccnc1C(C)C)c1nc(-c3c(O)cccc3F)c(Cl)cc21 (single isomer, unassigned) [Compound Z26-2] = 157.06
• C=CC(=O)N1CCN2c3c(c(=O)n(-c4c(C(C)C)ncnc4C(C)C)c4c(F)c(-c5c(O)cccc5F)c(Cl)cc34)NC(=O)[C@H]2C1 (single isomer, unassigned) [Compound Z37-1] = 286.12

====

tested on: A549 cells with Kras G12S mutation; assay: Cell proliferation inhibition experiment, 3D spheroid, CellTiter-Glo (Test Example 1); type: cell-based, human; settings: 5 days
Attribute: IC50
metricName: IC50

- C=CC(=O)N1CCN2c3c(c(=O)n(-c4c(C)ccnc4C(C)C)c4nc(-c5c(O)cccc5F)c(F)cc34)N(CC)C(=O)[C@H]2C1 (single isomer, unassigned) [Compound Z30-1]: > 30 µM
- C=CC(=O)N1C[C@@H]2C(=O)N(C)c3c(c4cc(F)c(-c5c(O)cccc5F)nc4n(-c4c(C)ccnc4C(C)C)c3=O)N2C[C@H]1C (single isomer, unassigned) [Compound Z10-1]: > 10 µM
- C=CC(=O)N1CCN2c3c(c(=O)n(-c4c(C)ccnc4C(C)C)c4nc(-c5c(O)cccc5F)c(Cl)cc34)NC(=O)[C@H]2C1 (single isomer, unassigned) [Compound Z24-1]: > 30 µM
- C=CC(=O)N1C[C@@H]2C(=O)N(C)c3c(c4cc(Cl)c(-c5c(O)cccc5F)c(F)c4n(-c4c(C(C)C)ncnc4C(C)C)c3=O)N2C[C@H]1C (single isomer, unassigned) [Compound Z50-2]: 3.87 µM
- C=CC(=O)N1CCN2c3c(c(=O)n(-c4c(C)ccnc4C(C)C)c4nc(-c5c(O)cccc5F)c(F)cc34)N(CC)C(=O)[C@H]2C1 (single isomer, unassigned) [Compound Z30-2]: > 30 µM
- [2H]C([2H])([2H])N1C(=O)[C@H]2CN(C(=O)C=C)CCN2c2c1c(=O)n(-c1c(C(C)C)ncnc1C(C)C)c1c(F)c(-c3c(O)cccc3F)c(Cl)cc21 (atropisomer, axis not shown; (aR)) [Compound Z39-1]: > 30 µM
- [2H]C([2H])([2H])N1C(=O)[C@H]2CN(C(=O)C=C)CCN2c2c1c(=O)n(-c1c(C)ccnc1C(C)C)c1nc(-c3c(O)cccc3F)c(Cl)cc21 [Compound Z26]: 12.9 µM
- C=CC(=O)N1C[C@@H]2C(=O)N(C)c3c(c4cc(Cl)c(-c5c(O)cccc5F)nc4n(-c4c(C)ccnc4C(C)C)c3=O)N2C[C@H]1C (single isomer, unassigned) [Compound Z27-2]: 19 µM
- C=CC(=O)N1C[C@@H]2C(=O)N(C)c3c(c4cc(F)c(-c5c(O)cccc5F)nc4n(-c4c(C#N)cccc4C(C)C)c3=O)N2C[C@H]1C (atropisomer, axis not shown) [Compound Z38-1]: > 30 µM
- [2H]C([2H])([2H])N1C(=O)[C@H]2CN(C(=O)C=C)CCN2c2c1c(=O)n(-c1c(C(C)C)ncnc1C(C)C)c1c(F)c(-c3c(O)cccc3F)c(Cl)cc21 (single isomer, unassigned) [Compound Z39-2]: 7.78 µM
- C=CC(=O)N1CCN2c3c(cnc4c3CCN(c3c(C)ccc5[nH]ncc35)C4)OC[C@H]2C1 [Compound Z2]: > 10 µM
- C=CC(=O)N1C[C@@H]2C(=O)N(C)c3c(c4cc(F)c(-c5c(O)cccc5F)nc4n(-c4c(C)cnn4C(C)C)c3=O)N2C[C@H]1C (single isomer, unassigned) [Compound Z33-1]: > 30 µM
- C=CC(=O)N1C[C@@H]2C(=O)N(C)c3c(c4cc(Cl)c(-c5c(O)cccc5F)c(F)c4n(-c4c(C(C)C)ncnc4C(C)C)c3=O)N2C[C@H]1C (single isomer, unassigned) [Compound Z50-1]: > 30 µM
- C=CC(=O)N1CCN2c3c(c(=O)n(-c4c(C)ccnc4C(C)C)c4nc(-c5c(O)cccc5F)c(F)cc34)OC[C@H]2C1 (single isomer, unassigned) [Compound Z1-1]: 10.7 µM
- [2H]C([2H])([2H])N1C(=O)[C@H]2CN(C(=O)C=C)CCN2c2c1c(=O)n(-c1c(C)ccnc1C(C)C)c1nc(-c3c(O)cccc3F)c(Cl)cc21 (single isomer, unassigned) [Compound Z26-2]: > 30 µM
- C=CC(=O)N1CCN2c3c(c(=O)n(-c4c(C)ccnc4C(C)C)c4nc(-c5c(O)cccc5F)c(Cl)cc34)N(C)C(=O)[C@H]2C1 (single isomer, unassigned) [Compound Z25-2]: > 30 µM
- C=CC(=O)N1C[C@@H]2C(=O)N(C)c3c(c4cc(F)c(-c5c(O)cccc5F)nc4n(-c4c(C#N)cccc4C(C)C)c3=O)N2C[C@H]1C (atropisomer, axis not shown) [Compound Z38-2]: > 30 µM
- C=CC(=O)N1CCN2c3c(c(=O)n(-c4c(C)ncnc4C(C)C)c4nc(-c5c(O)cccc5F)c(F)cc34)N(C)C(=O)[C@H]2C1 (single isomer, unassigned) [Compound Z21-1]: > 30 µM
- [2H]C([2H])([2H])N1C(=O)[C@H]2CN(C(=O)C=C)CCN2c2c1c(=O)n(-c1c(C)ccnc1C(C)C)c1nc(-c3c(O)cccc3F)c(Cl)cc21 (single isomer, unassigned) [Compound Z26-1]: > 30 µM

Data credit: patent US12054497B2
